Cited source for all entries: patent US20250250357A1

SYSTEM_TESTED: T1, human MSLN-FL-his protein (human, UniProt Q13421 296-580)
T1 construct: made in HEK293E cells, purified on nickel column; also called hMSLN-FL-his; human MSLN full-length protein; not shown: His tag
PROTOCOL_DETAILS: SPR (Biacore), antibody captured on Protein A chip;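 further: flow cell at 25 °C, antigen injected for 240 s at five concentrations from 200 nM downward, dissociation followed up to 600 s, double-referenced, fitted with Langmuir 1:1 model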
MEASURED_PARAMETER: Kd (nM)

binder="S009-F7.23.19 (antibody, human IgG1, kappa, V domains shown, human-murine chimeric antibody, human IgG1/kappa constant regions) VH: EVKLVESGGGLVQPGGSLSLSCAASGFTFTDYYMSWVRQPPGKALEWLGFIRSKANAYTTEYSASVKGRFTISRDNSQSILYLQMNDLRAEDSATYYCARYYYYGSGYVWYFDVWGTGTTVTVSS VL: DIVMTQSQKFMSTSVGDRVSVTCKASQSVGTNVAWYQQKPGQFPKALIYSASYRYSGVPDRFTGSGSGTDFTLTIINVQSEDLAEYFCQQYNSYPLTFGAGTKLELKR" measured_parameter=Kd value=13.6
binder="S009-F7.6.17 (antibody, human IgG1, kappa, V domains shown, human-murine chimeric antibody, human IgG1/kappa constant regions) VH: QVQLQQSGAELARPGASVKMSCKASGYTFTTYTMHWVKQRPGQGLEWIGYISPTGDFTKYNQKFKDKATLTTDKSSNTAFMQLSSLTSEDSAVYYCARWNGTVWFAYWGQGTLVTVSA VL: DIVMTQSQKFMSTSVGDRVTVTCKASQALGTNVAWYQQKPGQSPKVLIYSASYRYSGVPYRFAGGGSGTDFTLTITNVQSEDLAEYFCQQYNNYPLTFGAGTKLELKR" measured_parameter=Kd value=1.18
binder="S009-F7.11.11 (antibody, human IgG1, kappa, V domains shown, human-murine chimeric antibody, human IgG1/kappa constant regions) VH: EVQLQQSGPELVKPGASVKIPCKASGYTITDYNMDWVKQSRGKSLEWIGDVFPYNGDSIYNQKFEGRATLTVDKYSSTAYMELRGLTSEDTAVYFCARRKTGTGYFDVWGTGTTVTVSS VL: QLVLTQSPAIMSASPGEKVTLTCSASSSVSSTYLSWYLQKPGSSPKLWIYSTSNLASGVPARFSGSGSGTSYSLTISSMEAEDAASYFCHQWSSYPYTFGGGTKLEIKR" measured_parameter=Kd value=0.181
